Please respond with reported Emax for every item in the list.
Target: recombinant human Meningioma Expressed Antigen 5 (MGEA5), also referred to as O-GlcNAcase (OGA) (Homo sapiens)
Construct: Full length OGA enzyme was purchased at OnGene (cat #TP322411); purchased OnGene (so in the source)
Sequence (O60502 whole entry): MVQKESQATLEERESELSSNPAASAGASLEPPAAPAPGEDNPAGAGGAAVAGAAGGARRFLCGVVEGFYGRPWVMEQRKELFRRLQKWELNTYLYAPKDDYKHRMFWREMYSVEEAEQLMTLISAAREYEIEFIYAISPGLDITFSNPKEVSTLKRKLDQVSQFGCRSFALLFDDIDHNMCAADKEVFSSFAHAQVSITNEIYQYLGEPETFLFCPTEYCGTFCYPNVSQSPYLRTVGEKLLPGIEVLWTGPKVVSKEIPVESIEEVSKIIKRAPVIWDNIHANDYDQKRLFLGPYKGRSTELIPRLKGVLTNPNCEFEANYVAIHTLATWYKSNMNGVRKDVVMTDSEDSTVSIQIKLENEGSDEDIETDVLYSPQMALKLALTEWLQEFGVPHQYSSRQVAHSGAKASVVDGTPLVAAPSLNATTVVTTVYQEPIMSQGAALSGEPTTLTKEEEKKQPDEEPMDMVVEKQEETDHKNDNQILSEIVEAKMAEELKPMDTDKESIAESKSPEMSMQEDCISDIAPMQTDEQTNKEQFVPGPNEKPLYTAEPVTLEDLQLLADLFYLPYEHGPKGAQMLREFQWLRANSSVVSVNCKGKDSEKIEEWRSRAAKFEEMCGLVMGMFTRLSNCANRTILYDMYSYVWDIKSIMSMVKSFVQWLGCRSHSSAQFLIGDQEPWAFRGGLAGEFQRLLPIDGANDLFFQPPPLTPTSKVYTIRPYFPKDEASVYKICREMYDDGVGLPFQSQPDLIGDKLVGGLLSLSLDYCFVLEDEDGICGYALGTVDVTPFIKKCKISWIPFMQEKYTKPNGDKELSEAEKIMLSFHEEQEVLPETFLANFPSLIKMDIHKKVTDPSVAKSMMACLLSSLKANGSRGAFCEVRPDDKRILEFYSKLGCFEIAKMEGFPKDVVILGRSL
Experiment: OGA biochemical assay (inhibition of FM-GlcNAc hydrolysis, fluorescence)
Conditions: maximal effect, read-out: Enzymatic Emax (%)
From the text: The assay is based on the inhibition of the hydrolysis of fluorescein mono-β-D-N-Acetyl-Glucosamine (FM-GlcNAc) (Mariappa et al. 2015, Biochem J 470:255) by the recombinant human Meningioma Expressed Antigen 5 (MGEA5), also referred to as O-GlcNAcase (OGA). […] The fluorescence of the latter can be measured at excitation wavelength 485 nm and emission wavelength 538 nm. An increase in enzyme activity results in an increase in fluorescence signal. […]
Note: unit % is implicit; provide only the numeric part.

## Task Respond only with Emax recorded for Cc1cc(CN[C@H]2CCCN(C(C)c3ccc4c(n3)OCCO4)C2)cc(C)n1 (stereo partly shown) [Product 194]
## Result 97

## Task Answer with the recorded Emax for the molecule listed here: Cc1cc(C[C@H]2CCCN(C(C)c3ccc4c(c3)OCC(=O)N4)C2)cc(C)n1 (mixture of isomers) [Product 58]
## Result 102

## Task Give the measured Emax for Cc1cc(OC[C@H]2CCCN(C(C)c3ccc4c(n3)OCCO4)C2)nc(C)n1 (single isomer, unassigned) [Product 162]
## Result 93

## Task Read the entry Cc1cc(O[C@@H]2CCCN([C@@H](C)c3cnc4c(c3)OCCN4)C2)cc(C(F)(F)F)n1 [Product 17] and write its reported Emax.
## Result 99
